Reported Absolute mRNA transfection efficiency in HEK293 cells by item:
- Tested on: HEK293 cells
- Assay method text: Preliminary screening as mRNA vectors, EGFP mRNA transfection of HEK293 cells
- Format: cell-based
- Condition context: EGFP mRNA 50 ng per well, 96-well plates; percentage of GFP fluorescent cells relative to total number of cells (Hoechst)
Endpoint name: Absolute mRNA transfection efficiency in HEK293 cells (%)

>  <Query smiles>
CCCCCCCCCCCSc1nc(NCCCCCCC)nc(NCCCN2CCN(C)CC2)n1

>  <Observed result>
10.5

$$$$
>  <Query smiles>
CCCCCCCCSc1nc(NCCN(C)C)nc(SCCCCCCCC)n1

>  <Observed result>
11.7

$$$$
>  <Query smiles>
CCCCCCCCSc1nc(NCCN2CCCCC2)nc(SCCCCCC)n1

>  <Observed result>
0.5

$$$$
>  <Query smiles>
CCCCCCCCCCCNc1nc(NCCCN2CCOCC2)nc(SCCCCCCC)n1

>  <Observed result>
20.1

$$$$
>  <Query smiles>
CCCCCCCCCNc1nc(NCCCN(C)C)nc(SCCCCCCC)n1

>  <Observed result>
5.9

$$$$
>  <Query smiles>
CCCCCCCCCCCCCCSc1nc(NCCCCCCCCCCC)nc(NCCCN2CCN(C)CC2)n1

>  <Observed result>
15.6

$$$$
>  <Query smiles>
CCCCCCCCCCSc1nc(NCCCCCC)nc(NCCCN2CCN(C)CC2)n1

>  <Observed result>
1.1

$$$$
>  <Query smiles>
CCCCCCCCCCCCCCCCSc1nc(NCCN2CCN(C)CC2)nc(SCCCCCCC)n1

>  <Observed result>
49.2

$$$$
>  <Query smiles>
CCCCCCCCCCCCCCCCCCSc1nc(NCCCCCCC)nc(NCCN2CCN(C)CC2)n1

>  <Observed result>
67.7

$$$$
>  <Query smiles>
CCCCCCCCCCCCN(CCCCCCCCCCCC)c1nc(NCCN2CCN(C)CC2)nc(SCCCCCCCCCC)n1

>  <Observed result>
0.1

$$$$
>  <Query smiles>
CCCCCCCCCCCNc1nc(NCCN2CCN(C)CC2)nc(SCCCCCCCC)n1

>  <Observed result>
30.1

$$$$
>  <Query smiles>
CCCCCCCNc1nc(NCCCN2CCN(C)CC2)nc(SCCCCCCC)n1

>  <Observed result>
2.5

$$$$
>  <Query smiles>
CCCCCCCCCCCCCCCNc1nc(NCC2CCN(C)CC2)nc(SCCCCCCCCCCC)n1

>  <Observed result>
18.6

$$$$
>  <Query smiles>
CCCCCCCCCCCCCCCCCCSc1nc(NCCCCCCCCCCC)nc(NCC2CCN(C)CC2)n1

>  <Observed result>
4.5

$$$$
>  <Query smiles>
CCCCCCSc1nc(NCCN2CCCC2)nc(SCCCCCC)n1

>  <Observed result>
1.9

$$$$
>  <Query smiles>
CCCCCCCCCCCCCCCCCCSc1nc(NCCCCCCCCCCCCCCCC)nc(NCCCN2CCN(C)CC2)n1

>  <Observed result>
0.1

$$$$
>  <Query smiles>
CCCCCCCCCCCCCCCCNc1nc(NCCCN2CCOCC2)nc(SCCCCCCCCCCCCCCCC)n1

>  <Observed result>
0.0

$$$$

====

- System: HEK293 cells
- Assay method text: Preliminary screening as DNA vectors, GFP transfection of HEK293 cells
- Type: cell-based
- Condition context: amino lipid/DOPE liposome with 75 ng plasmid DNA (psin-EGFP-IRES-Puro); number of GFP-expressing cells divided by total nuclei (Hoechst)
- Procedure: Cell line: HEK293 cells (ATCC CRL-1573™) Medium: DMEM supplemented with 10% fetal bovine serum (Invitrogen) Mode of screening: cell transfection on 96-well plates Detection (readout): percentage of the number of GFP fluorescent cells relative to the total number of cells (the total number of cells was measured using nucleus dye Hoechst—see FIG. 2). […] 4. […] The absolute transfection efficiency was calculated as follows: […]
Endpoint name: Absolute DNA transfection efficiency in HEK293 cells

>  <Compound>
CCCCCCCCCSc1nc(NCCN2CCCC2)nc(SCCCCCCC)n1

>  <Target under test>
HEK293 cells

>  <Observed result>
21.5%

$$$$
>  <Compound>
CCCCCCCCCSc1nc(NCCCCCCCC)nc(NCCN2CCN(C)CC2)n1

>  <Target under test>
HEK293 cells

>  <Observed result>
30.3%

$$$$
>  <Compound>
CCCCCCCCCCCCCCCCNc1nc(NCCN2CCCC2)nc(SCCCCCCC)n1

>  <Target under test>
HEK293 cells

>  <Observed result>
21.2%

$$$$
>  <Compound>
CCCCCCCCCCCCCCCNc1nc(NCCCN(C)C)nc(SCCCCCCCCCCC)n1

>  <Target under test>
HEK293 cells

>  <Observed result>
8.2%

$$$$
>  <Compound>
CCCCCCCCCCCCCCCCCCNc1nc(NCCN2CCOCC2)nc(SCCCCCCCCCCCCCCC)n1 [S15N18 D2]

>  <Target under test>
HEK293 cells

>  <Observed result>
0.0%

$$$$
>  <Compound>
CCCCCCCCCCCCCCCCCCNc1nc(NCC2CCN(C)CC2)nc(SCCCCCCCCCCCCCCC)n1

>  <Target under test>
HEK293 cells

>  <Observed result>
1.2%

$$$$
>  <Compound>
CCCCCCCCCCCCCNc1nc(NCCN(C)C)nc(SCCCCCCCCCC)n1 [S10N13 D1]

>  <Target under test>
HEK293 cells

>  <Observed result>
6.1%

$$$$
>  <Compound>
CCCCCCCCCCCCCCCCCCSc1nc(NCCCCCC)nc(NCCN2CCOCC2)n1 [S18N6 D2]

>  <Target under test>
HEK293 cells

>  <Observed result>
5.9%

$$$$

====

- System: Hela cells
- Assay method text: Transfection of Hela cell line, mRNA vectors
- Type: cell-based
- Condition context: 50 ng EGFP mRNA per well
Label key: T means Absolute mRNA transfection efficiency in Hela cells under 10%; F means Absolute mRNA transfection efficiency in Hela cells of 10% or more.

>  <Molecule>
CCCCCCCCCCCCSc1nc(NCCN2CCCCC2)nc(SCCCCCCCC)n1 [Compound S8S12D4]

>  <Target under test>
Hela cells

>  <Class assignment>
T

$$$$
>  <Molecule>
CCCCCCCCCCCSc1nc(NCCN2CCN(C)CC2)nc(SCCCCCCCC)n1 [Compound S8S11D5]

>  <Target under test>
Hela cells

>  <Class assignment>
T

$$$$
>  <Molecule>
CCCCCCCCCCCNc1nc(NCC2CCN(C)CC2)nc(SCCCCCCCCC)n1 [Compound S9N11D10]

>  <Target under test>
Hela cells

>  <Class assignment>
F

$$$$
>  <Molecule>
CCCCCCCCCCCNc1nc(NCCN(C)C)nc(SCCCCCCCCC)n1 [Compound S9N11D1]

>  <Target under test>
Hela cells

>  <Class assignment>
F

$$$$
>  <Molecule>
CCCCCCCCCCCSc1nc(NCCCCCCCC)nc(NCCN2CCOCC2)n1 [Compound S11N8D2]

>  <Target under test>
Hela cells

>  <Class assignment>
T

$$$$
>  <Molecule>
CCCCCCCCCNc1nc(NCCN2CCOCC2)nc(SCCCCCCCCC)n1 [Compound S9N9D2]

>  <Target under test>
Hela cells

>  <Class assignment>
F

$$$$
>  <Molecule>
CCCCCCCCCCCSc1nc(NCCCCCCCCC)nc(NCCCN2CCN(C)CC2)n1 [Compound S11N9D9]

>  <Target under test>
Hela cells

>  <Class assignment>
F

$$$$
>  <Molecule>
CCCCCCCCCCCSc1nc(NCCCCCCCC)nc(NCCCN2CCN(C)CC2)n1 [Compound S11N8D9]

>  <Target under test>
Hela cells

>  <Class assignment>
F

$$$$

====

- Test system: HEK293 cells
- Assay method text: Preliminary screening as DNA vectors, GFP transfection of HEK293 cells
- Type: cell-based
- Condition context: amino lipid/DOPE liposome with 75 ng plasmid DNA (psin-EGFP-IRES-Puro); number of GFP-expressing cells divided by total nuclei (Hoechst)
Endpoint name: Absolute DNA transfection efficiency in HEK293 cells (%)

>  <Compound>
CCCCCCCCCCCCCCCCSc1nc(NCCN(C)C)nc(SCCCCCCC)n1 [S7S16 D1]

>  <Target under test>
HEK293 cells

>  <Observed result>
10.0

$$$$
>  <Compound>
CCCCCCCCCCCCCCSc1nc(NCCCCCC)nc(NCCN(CC)CC)n1 [S14N6 D7]

>  <Target under test>
HEK293 cells

>  <Observed result>
20.3

$$$$
>  <Compound>
CCCCCCCCCCCCCCCNc1nc(NCCN2CCCCC2)nc(SCCCCCC)n1 [S6N15 D4]

>  <Target under test>
HEK293 cells

>  <Observed result>
1.7

$$$$
>  <Compound>
CCCCCCCCCCCCCCCCSc1nc(NCCCCCCC)nc(NCC2CCN(C)CC2)n1 [S16N7 D10]

>  <Target under test>
HEK293 cells

>  <Observed result>
3.4

$$$$
>  <Compound>
CCCCCCCCCCSc1nc(NCCCCCCCCC)nc(NCCCN(C)C)n1 [S10N9 D6]

>  <Target under test>
HEK293 cells

>  <Observed result>
21.0

$$$$
>  <Compound>
CCCCCCCCCCCSc1nc(NCCCCCCC)nc(NCCCN2CCN(C)CC2)n1 [S11N7 D9]

>  <Target under test>
HEK293 cells

>  <Observed result>
16.1

$$$$
>  <Compound>
CCCCCCCCCCCCCCSc1nc(NCCCCCCCCCCCC)nc(NCCCN(C)C)n1 [S14N12 D6]

>  <Target under test>
HEK293 cells

>  <Observed result>
6.3

$$$$
>  <Compound>
CCCCCCCSc1nc(NCC2CCN(C)CC2)nc(SCCCCCCC)n1 [S7S7 D10]

>  <Target under test>
HEK293 cells

>  <Observed result>
5.5

$$$$
>  <Compound>
CCCCCCCCCCCCCCCSc1nc(NCCCCCCCCC)nc(NCCN2CCOCC2)n1 [S15N9 D2]

>  <Target under test>
HEK293 cells

>  <Observed result>
9.7

$$$$
>  <Compound>
CCCCCCCCCCCCCCCCSc1nc(NCCCCCCCCCCC)nc(NCCN2CCN(C)CC2)n1 [S16N11 D5]

>  <Target under test>
HEK293 cells

>  <Observed result>
9.5

$$$$
>  <Compound>
CCCCCCCCCCCCCCCCNc1nc(NCC2CCN(C)CC2)nc(SCCCCCCCCCCCCCC)n1 [S14N16 D10]

>  <Target under test>
HEK293 cells

>  <Observed result>
0.7

$$$$
>  <Compound>
CCCCCCCCCCCCCCCSc1nc(NCCCCCCC)nc(NCCN(CC)CC)n1 [S15N7 D7]

>  <Target under test>
HEK293 cells

>  <Observed result>
13.3

$$$$
>  <Compound>
CCCCCCCCCCCCCCCSc1nc(NCCN2CCN(C)CC2)nc(N(CCCCCCCCCCCC)CCCCCCCCCCCC)n1 [S15^2N12 D5]

>  <Target under test>
HEK293 cells

>  <Observed result>
0.7

$$$$
>  <Compound>
CCCCCCCCCCCCCCCCSc1nc(NCCN2CCN(C)CC2)nc(N(CCCCCCCCCCCC)CCCCCCCCCCCC)n1 [S16^2N12 D5]

>  <Target under test>
HEK293 cells

>  <Observed result>
0.0

$$$$
>  <Compound>
CCCCCCCCCCCCCCCCNc1nc(NCCCN2CCN(C)CC2)nc(SCCCCCCCCCCCCCCC)n1 [S15N16 D9]

>  <Target under test>
HEK293 cells

>  <Observed result>
0.2

$$$$
>  <Compound>
CCCCCCCNc1nc(NCCN2CCN(C)CC2)nc(SCCCCCCC)n1 [S7N7 D5]

>  <Target under test>
HEK293 cells

>  <Observed result>
33.5

$$$$
>  <Compound>
CCCCCCCCCCCNc1nc(NCC2CCN(C)CC2)nc(SCCCCCCCCCC)n1 [S10N11 D10]

>  <Target under test>
HEK293 cells

>  <Observed result>
5.4

$$$$
>  <Compound>
CCCCCCCCCCCCCCCSc1nc(NCCCCCCCC)nc(NCCN2CCOCC2)n1 [S15N8 D2]

>  <Target under test>
HEK293 cells

>  <Observed result>
19.3

$$$$
